Reported abundance fitness values follow for various variants
B1: Neutrophil cytosol factor 2, residues 456 to 514; numbered along this chain, P19878 (parent)
chain: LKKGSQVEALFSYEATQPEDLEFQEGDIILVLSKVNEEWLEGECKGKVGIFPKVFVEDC

variants of: B1; assay: abundance fitness (aPCA) (normalised: wild type 0, dead -1); higher = more abundant; growth selection in yeast, the domain comes from the species named; settings: Homo sapiens
I only need the number, thanks.

Inquiry: Name the recorded abundance fitness of the variant listed here: K53S
Reply text: -0.39

Inquiry: Name the recorded abundance fitness of the variant listed here: G42V
Reply text: -0.748

Inquiry: Name the recorded abundance fitness of the variant listed here: F11W
Reply text: -0.392

Inquiry: Name the recorded abundance fitness of the variant listed here: V48N
Reply text: -0.334

Inquiry: Name the recorded abundance fitness of the variant listed here: G46C
Reply text: -0.479

Inquiry: Name the recorded abundance fitness of the variant listed here: D27V
Reply text: -0.969

Inquiry: Name the recorded abundance fitness of the variant listed here: K3V
Reply text: -0.033

Inquiry: Name the recorded abundance fitness of the variant listed here: L10K
Reply text: -0.611

Inquiry: Name the recorded abundance fitness of the variant listed here: A9V
Reply text: -1.13

Inquiry: Name the recorded abundance fitness of the variant listed here: K34V
Reply text: 0.467

Inquiry: Name the recorded abundance fitness of the variant listed here: C44G
Reply text: -0.383

Inquiry: Name the recorded abundance fitness of the variant listed here: L10G
Reply text: -0.57

Inquiry: Name the recorded abundance fitness of the variant listed here: Q17N
Reply text: -0.093

Inquiry: Name the recorded abundance fitness of the variant listed here: E57K
Reply text: 0.201

Recorded values, source the Human Domainome abundance scans (Beltran et al. 2025).
